Provide the reported pIC50 of each item.
Target: DPP-IV (Homo sapiens, UniProt P27487)
Construct: an extract of the human colon carcinoma cell line Caco-2 is used as the DPP IV source; endogenous in cells; Nonidet-P40 solubilised extract
Sequence (P27487 whole entry): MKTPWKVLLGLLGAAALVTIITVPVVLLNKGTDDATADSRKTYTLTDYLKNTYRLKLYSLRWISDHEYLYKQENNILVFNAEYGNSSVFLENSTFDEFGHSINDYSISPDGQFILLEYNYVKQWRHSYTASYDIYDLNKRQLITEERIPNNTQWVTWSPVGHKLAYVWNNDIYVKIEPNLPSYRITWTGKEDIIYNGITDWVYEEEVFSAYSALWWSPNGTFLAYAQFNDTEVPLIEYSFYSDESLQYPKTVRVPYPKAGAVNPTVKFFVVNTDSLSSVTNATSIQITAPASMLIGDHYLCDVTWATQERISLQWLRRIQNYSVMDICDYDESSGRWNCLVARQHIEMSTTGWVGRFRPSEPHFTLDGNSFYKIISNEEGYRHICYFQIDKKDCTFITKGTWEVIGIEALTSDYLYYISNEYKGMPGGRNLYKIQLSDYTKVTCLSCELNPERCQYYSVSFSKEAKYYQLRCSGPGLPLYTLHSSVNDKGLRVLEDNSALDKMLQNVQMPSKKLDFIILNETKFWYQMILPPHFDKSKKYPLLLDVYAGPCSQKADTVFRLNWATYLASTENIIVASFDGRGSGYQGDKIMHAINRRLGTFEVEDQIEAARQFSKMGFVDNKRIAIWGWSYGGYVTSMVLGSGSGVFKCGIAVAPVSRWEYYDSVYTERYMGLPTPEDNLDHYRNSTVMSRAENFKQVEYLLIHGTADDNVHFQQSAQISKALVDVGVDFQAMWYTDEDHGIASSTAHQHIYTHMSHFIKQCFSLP
Test: DPP-IV assay with extract of Caco-2 cells as DPP IV source, AFC substrate, fluorescence
Details: extract of human colon carcinoma cell line Caco-2; substrate 100 μM; 60 minutes at ambient temperature; read-out: DPP IV inhibition IC50
Remember, pIC50 is on a log scale: it is -log10 of the molar concentration.

-- ask Given "CC#CCn1c(N(C)C[C@H](C)N)nc2c1c(=O)n(Cc1ncc3ccccc3c1C#N)c(=O)n2C" , state its recorded pIC50.
-- reply 8.70

-- ask Looking for the measured pIC50 of "CC#CCn1c(N(C)C[C@H](C)N)nc2c1c(=O)n(Cc1ncccc1C#N)c(=O)n2C" , can you help?
-- reply 8.52

-- ask Bench note: what pIC50 did "CC#CCn1c(N(C)C[C@H](C)N)nc2c1c(=O)n(Cc1nc(C)c3ccccc3n1)c(=O)n2C" show?
-- reply 8.70

-- ask Give its pIC50 value. Item: "CC#CCn1c(N(C)CCN)nc2c1c(=O)n(Cc1nc(C)c3ccccc3n1)c(=O)n2C"
-- reply 8.70

-- ask Any idea what pIC50 was measured for "CC#CCn1c(N(C)C[C@H](C)N)nc2c1c(=O)n(Cc1ccc3nccnc3c1)c(=O)n2C" ?
-- reply 8.52

-- ask // returns reported pIC50 for input "CC#CCn1c(N(C)CC(C)(C)N)nc2c1c(=O)n(Cc1nc(C)c3ccccc3n1)c(=O)n2C"
-- reply 8.52
